# procedure details: chemical genetic growth profiling, strain panel (AID 1159580);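 note: tested at 20 µM; growth read once vehicle control cultures reached saturation at 30 °C; 1 = growth at the plate median or of vehicle wells; lower values mean less growth of the strain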
# setup conditions: S. cerevisiae deletion strains, growth OD, locus YDR159W, strain sac3
The whole screen tested about 5,500 compounds, of which about 2,000 (36%) were called active. About 18% were inconclusive and are not listed. Cut-off read from the data, not from the text of the source: active = normalized growth mostly below about 0.91 (no sharp cut-off); inconclusive = no clear call, values can overlap the other calls; inactive = mostly above about 0.92. The list shows a part of the results.
Result category, one only: class 1 = active, class 0 = inactive

Dear all, I need the recorded test outcome for ClC1C(Cl)C(Cl)C(Cl)C(Cl)C1Cl (centres undefined) , thank you.
class 1

Which outcome did this test record for the compound Cc1cc2nc3c(=O)[nH]c(=O)nc-3n(CC(O)C(O)C(O)CO)c2cc1C (centres undefined) ?
class 0

Per the records of this test, what outcome belongs to CC(=O)OC1CCC2(O)CC1(C)CCC1C2CC1(C)C (centres undefined) ?
class 0

Name the outcome recorded for CC(=O)c1ccc[nH]1 in the assay.
class 0

How did this test come out for CC(=O)c1c(O)cc(O)cc1O ?
class 0

State the result this test recorded for CC(NC(C)(C)C)C(=O)c1cccc(Cl)c1 (centres undefined) .
class 0

// return assay outcome for CN1CCC[C@H]1c1cccnc1
class 0

Outcome? O=C(/C=C/c1ccc(O)cc1)c1ccccc1O
class 1

Dear colleague, could you share the recorded outcome for COc1cc(O)c2c(c1)C(=O)c1cc(C)cc(O)c1C2=O when you have a moment?
class 0

State the result this test recorded for CCCCN(CC)c1c([N+](=O)[O-])cc(C(F)(F)F)cc1[N+](=O)[O-] .
class 0

Recorded call for COc1ccccc1OCC(O)COC(N)=O (centres undefined) ?
class 0

Could you check what this test reported for COCC1=C(C(=O)OC(C)OC(=O)OC(C)C)N2C(=O)[C@@H](NC(=O)/C(=N\OC)c3csc(N)n3)[C@H]2SC1 (some centres undefined) ?
class 0

Please indicate how the test categorized CCCN(CCC)c1c([N+](=O)[O-])cc(C(F)(F)F)cc1[N+](=O)[O-] .
class 0

# fetch the recorded call for CC1(C)CC23C(=O)CCC(O)C2(C)CCC13 (centres undefined) here
class 0

These measurements were taken from PubChem BioAssay AID1159580.
